This collection of values is drawn from patent US6355472B2.

# assayTarget: acid phosphatase derived from Morganella morganii (Morganella morganii, UniProt P28581)
# Construct: made in house; host or cells: Morganella morganii NCIMB 10466 (native strain, not recombinant; purified from cell-free extract)
# Sequence (P28581 21-249): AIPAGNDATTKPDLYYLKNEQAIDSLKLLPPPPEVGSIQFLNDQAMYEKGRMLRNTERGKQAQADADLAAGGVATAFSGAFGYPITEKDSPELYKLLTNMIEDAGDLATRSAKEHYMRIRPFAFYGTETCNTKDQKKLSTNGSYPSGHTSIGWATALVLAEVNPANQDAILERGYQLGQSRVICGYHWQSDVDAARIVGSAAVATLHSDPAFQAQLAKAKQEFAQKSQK
# Assay type: biochemical, Morganella morganii NCIMB 10466
measurementLabel: Effect of the addition of metal ion and inhibitor on activity

structure | result
[Cu+2] | inhibited
[Pb+2] | inhibited
[Ag+2] | inhibited
[Hg+2] | inhibited

// recorded Effect of the addition of metal ion and inhibitor on activity for O=C(O)CI : inhibited

###

# System: acid phosphatase sample derived from Escherichia blattae
# protocolNotes: Phosphorylation reaction of various nucleosides by acid phosphatase sample
# Format: biochemical
# details: sodium pyrophosphate 15 g/dl, nucleoside 3 g/dl, enzyme 50 units/dl, pH 4.0, 35° C., 3 hours
measurementLabel: Amount Produced (nucleoside-5′-ester) (g/dL)
Your answer should be a plain number; it is taken to be in g/dL.

structure | measurementUnits | readoutNumber
Nc1nc2c(ncn2[C@@H]2O[C@H](CO)[C@@H](O)[C@H]2O)c(=O)[nH]1 | g/dL | 1.05

Noted for OC[C@H]1O[C@@H](n2cnc3c(O)ncnc32)[C@H](O)[C@@H]1O : its Amount Produced (nucleoside-5′-ester) reads 1.56

The recorded Amount Produced (nucleoside-5′-ester) for Nc1ccn([C@@H]2O[C@H](CO)[C@@H](O)[C@H]2O)c(=O)n1 is 1.22

Entry O=c1ccn([C@@H]2O[C@H](CO)[C@@H](O)[C@H]2O)c(=O)[nH]1 — recorded Amount Produced (nucleoside-5′-ester) = 1.87
